Target: SIRT7 protein (Homo sapiens)
Construct: purchased SignalChem S41-30H
Sequence (Q9NRC8 1-400): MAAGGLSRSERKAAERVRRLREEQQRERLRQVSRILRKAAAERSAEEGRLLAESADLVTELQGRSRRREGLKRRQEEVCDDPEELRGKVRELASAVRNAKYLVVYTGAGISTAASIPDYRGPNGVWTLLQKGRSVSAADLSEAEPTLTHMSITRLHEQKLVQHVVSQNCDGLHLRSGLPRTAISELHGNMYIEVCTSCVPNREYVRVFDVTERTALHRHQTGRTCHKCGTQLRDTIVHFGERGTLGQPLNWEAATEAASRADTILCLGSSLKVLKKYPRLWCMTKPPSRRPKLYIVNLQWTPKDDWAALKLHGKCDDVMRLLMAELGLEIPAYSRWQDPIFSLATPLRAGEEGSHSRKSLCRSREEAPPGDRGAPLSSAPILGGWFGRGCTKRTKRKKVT
Experiment: SIRT Glo assay, inhibitory activity against Sirt7
Assay type: biochemical
Conditions: 10 μM compound
measurement.kind: inhibition at 10 µM (%)

Here are 5 compounds together with their reported answers.
Ask: Lab note: need inhibition at 10 µM for `O=C(Nc1nc2ccccc2s1)c1c(F)cc(C=C2CCN(C(=O)Nc3ccc(C(F)(F)F)cc3)CC2)cc1F` on SIRT7 protein (Homo sapiens), anyone have it?
Reply: 37

Ask: Check `O=C(Nc1nc2ccccc2s1)c1ccc(C2=CCN(C(=O)Nc3ccc(C(F)(F)F)cc3)CC2)cc1` too.
Reply: 5

Ask: Check `Cc1ccc(Oc2ccc(C(=O)Nc3nc4cccnc4s3)cc2)nn1` too.
Reply: 87

Ask: Check `O=C(Nc1nc2ccccc2s1)c1ccc(C=C2CCN(C(=O)Nc3ccc(F)cc3)CC2)cc1Cl` too.
Reply: 100

Ask: Check `Cc1ccc(Oc2cccc(C(=O)Nc3nc4ccccc4s3)c2)nn1` too.
Reply: 88

[1] CC(C)(C)OC(=O)N1CCC(=Cc2cc(F)c(C(=O)Nc3nc4ccccc4s3)c(F)c2)CC1
[2] CCOc1ccccc1NC(=O)N1CCN(Cc2ccc(C(=O)Nc3nc4ccccc4s3)cc2)CC1
[3] O=C(Nc1nc2ccccc2s1)c1ccc(C2CCN(C(=O)Nc3ccc(C(F)(F)F)cc3)CC2)cc1
[4] O=C(Nc1nc2ccccc2[nH]1)c1ccc(CN2CCNCC2)cc1
[5] CC(C)(C)OC(=O)N1CCC(=Cc2ccc(C(=O)Nc3nc4ccccc4s3)cc2Cl)CC1
Ask: // sort entries: inhibition at 10 µM, high to low Could you list the labels in the order requested?
Reply: 2, 5, 1, 4, 3

[P] O=C(Nc1nc2ccccc2s1)c1ccc(CC2CCN(C(=O)Nc3ccccc3)CC2)cc1C(F)(F)F
[Q] O=C(Nc1nc2ccccc2s1)c1ccc(C=C2CCN(C(=O)Nc3ccccc3)CC2)cc1F
[R] CCc1cnc(Oc2cccc(C(=O)Nc3nc4ccccc4s3)c2)nc1
[S] CCc1cnc(Oc2ccc(C(=O)Nc3nc4ccccc4s3)cc2)nc1
Ask: Sort entries by inhibition at 10 µM from minimum to maximum value. Could you list the labels in the order requested?
Reply: S, P, R, Q

* * *

biological target: SIRT7 protein (Homo sapiens); construct: purchased SignalChem S41-30H; assay: SIRT Glo assay, inhibitory activity against Sirt7; type: biochemical; settings: 10 μM compound
measurement.kind: inhibition at 10 µM (%)

[I] O=C(Nc1nc2ccccc2s1)c1ccc(C=C2CCN(C(=O)Nc3ccccc3)CC2)cc1
[II] CC(C)(C)OC(=O)N1CCC(Cc2ccc(C(=O)Nc3nc4ccccc4s3)c(C(F)(F)F)c2)CC1
[III] CCC(=O)N1CCN(Cc2ccc(C(=O)Nc3nc4ccccc4s3)cc2)CC1
[IV] CC(C)(C)OC(=O)N1CC2(CCN(Cc3ccc(C(=O)Nc4nc5ccccc5s4)cc3)CC2)C1
[V] CC(C)(C)OC(=O)N1CCC2(CC1)CN(c1nc3ccccc3s1)C2
Ask: List items by inhibition at 10 µM in falling order. Could you list the labels in the order requested?
Reply: I, IV, V, III, II

[1] O=C(Nc1nc2ccccc2s1)c1ccc(C=C2CCNCC2)c(Cl)c1
[2] CCc1cnc(Oc2cccc(C(=O)Nc3nc4ccccc4[nH]3)c2)nc1
[3] O=C(Nc1nc2ccccc2s1)c1ccc(C=C2CCNCC2)cc1
[4] O=C(Nc1nc2ccccc2s1)c1ccc(CN2CCN(S(=O)(=O)C3CC3)CC2)cc1
Ask: // sort entries: inhibition at 10 µM, high to low Could you list the labels in the order requested?
Reply: 1, 2, 4, 3
(1: 91%, 2: 44%, 4: 29%, 3: 5%)

* * *

target: SIRT7 protein (Homo sapiens, UniProt Q9NRC8); construct: purchased SignalChem S41-30H; experiment: SIRT Glo assay, inhibitory activity against Sirt7; format: biochemical; details: 10 μM compound
measurement.kind: inhibition at 10 µM (%)

Here are 8 compounds together with their reported answers.
Ask: Lab note: need inhibition at 10 µM for CC(C)(C)OC(=O)N1CC=C(c2ccc(C(=O)Nc3nc4ccccc4s3)cc2)CC1 [Compound 1-74] on SIRT7 protein (Homo sapiens, UniProt Q9NRC8), anyone have it?
Reply: 10

Ask: Check CCN1CCN(Cc2ccc(C(=O)Nc3nc4ccccc4s3)cc2)CC1 [Compound 1-61] too.
Reply: 3

Ask: Check CCNC(=O)N1CCC(=Cc2ccc(C(=O)Nc3nc4ccccc4s3)c(F)c2)CC1 [Compound 1-88] too.
Reply: 100

Ask: Check O=C(Nc1nc2ccccc2s1)c1ccc(C2=CCNCC2)cc1 [Compound 1-75] too.
Reply: 26

Ask: Check CCNC(=O)N1CCC(=Cc2ccc(C(=O)Nc3nc4ccccc4s3)cc2Cl)CC1 [Compound 1-97] too.
Reply: 100

Ask: Check O=C(Nc1nc2ccccc2[nH]1)c1ccc(OCc2ccccc2)cc1 [Compound 1-12] too.
Reply: 99

Ask: Check Cc1ccc(Oc2ccc(C(=O)Nc3nc4cc(F)ccc4[nH]3)cc2)nn1 [Compound 1-6] too.
Reply: 92

Ask: Check O=C(Nc1nc2ccccc2s1)c1ccc(C=C2CCNCC2)cc1Cl [Compound 1-104] too.
Reply: 92

[1] O=C(Nc1nc2ccccc2s1)c1ccc(CN2CCN(C(=O)Nc3ccc(C(F)(F)F)cc3)CC2)cc1 [Compound 1-39]
[2] c1ccc(CN2CCC3(CC2)CN(c2nc4ccccc4s2)C3)cc1 [Compound 1-30]
Ask: Would you mind telling me which has the lower recorded inhibition at 10 µM between 1 and 2 ? Pick one; state its label.
Reply: 2

* * *

Target: SIRT7 protein (Homo sapiens, UniProt Q9NRC8)
Construct: purchased SignalChem S41-30H
Assay: SIRT Glo assay, inhibitory activity against Sirt7
Format: biochemical
Settings: 10 μM compound
Method: Promega's Cat. No. 6450 SIRT Glo assay kit was used, and as the target SIRT7 protein, No. S41-30H protein of SignalChem's Cat. was used. […] After adding 5 μL of SIRT Glo buffer to the positive control group, and 5 μL of the diluted compound to the compound group, react for 30 minutes. After making the substrate provided in the SIRT Glo assay, adding 10 μL each, and reacting for 1 hour, the luciferase activity is measured with a microplate reader (Molecular Device, spectramax i3). […]
measurement.kind: inhibition at 10 µM (%)

Here are 3 compounds together with their reported answers.
Ask: Fill in the blank: the reported inhibition at 10 µM of O=C(Nc1nc2ccccc2s1)c1ccc(CN2CCN(C(=O)Nc3ccc(F)cc3)CC2)cc1 [Compound 1-44] is ____.
Reply: 95

Ask: Check O=C(Nc1nc2ccccc2s1)c1ccc(CN2CCN(C(=O)Nc3ccc4c(c3)CCC4)CC2)cc1 [Compound 1-46] too.
Reply: 84

Ask: Check Cc1ccc(Oc2ccc(C(=O)Nc3nc4ccccc4[nH]3)cc2)nn1 [Compound 1-4] too.
Reply: 90

[A] O=C(Nc1nc2ccccc2s1)c1ccc(CN2CCN(C(=O)Nc3ccccc3C(F)(F)F)CC2)cc1 [Compound 1-43]
[B] CCNC(=O)N1CCC(Cc2ccc(C(=O)Nc3nc4ccccc4s3)c(C(F)(F)F)c2)CC1 [Compound 1-84]
Ask: Would you mind telling me which has the lower recorded inhibition at 10 µM between A and B ? Pick one; state its label.
Reply: B

[I] O=C(Nc1nc2ccccc2n1Cc1ccc(C(F)(F)F)cc1)c1ccc(OCc2ccc(C(F)(F)F)cc2)cc1 [Compound 1-14]
[II] c1ccc2sc(N3CCC4(CC3)OCCO4)nc2c1 [Compound 1-23]
Ask: Select one: I or II . Criterion: greater recorded inhibition at 10 µM. Pick one; state its label.
Reply: II
(II: 78%, I: 15%)

[I] O=C(Nc1nc2ccccc2s1)c1ccc(CN2C[C@@H]3C[C@H]2CN3C(=O)Nc2ccccc2)cc1 [Compound 1-73]
[II] O=C(Nc1nc2ccccc2s1)c1ccc(CN2CCN(C(=O)NC3CCCCC3)CC2)cc1 [Compound 1-53]
[III] O=C(Nc1nc2ccccc2[nH]1)c1cccc(Oc2ncc(F)cn2)c1 [Compound 1-11]
[IV] CCNC(=O)N1C[C@@H]2C[C@H]1CN2Cc1ccc(C(=O)Nc2nc3ccccc3s2)cc1 [Compound 1-72]
Ask: // sort entries: inhibition at 10 µM, high to low Could you list the labels in the order requested?
Reply: II, I, IV, III
(II: 97%, I: 64%, IV: 40%, III: 21%)

Where these numbers come from: patent US20240116897A1
